Target: HLA-A*02:01 (Homo sapiens, UniProt P04439, D140Y/D185E/D98H/E176V/E277Q/G131W/G231S/I119V/I121R/I166T/I218V/L300P/L318F/N151K/N90K/P208A/P217A/Q86G/Q94H/R138H/R169H/T345S)
Experiment: REVEAL Epitope Discovery System in vitro MHC-peptide binding assay
Conditions: binding normalized to positive control peptide set at 100%, greater than 50 considered good or high affinity binding
Procedure: Actual binding affinities for certain HLA class I alleles (A*02:01, A*03:01, A*11:01, and B*08:01) were assessed in vitro for exemplary overlapping 9 amino acid peptide sequences within a portion of the 26 amino acid junction region spanning the CD28 and 4-1BB junction. […] In addition, a series of overlapping 9-mer peptides of each of a number of different variants of this portion also were assessed, each variant containing a mutation or mutations in this region as described in Example 2. […]
No end group written: not given here.
Outcome Measure: A*02:01 In Vitro Score
// no unit string in output, number only

Answered examples (2):
>>> reported("WVLRGRKKL")
2.40
>>> reported("VAFIIFWVL")
0.20

Proceeding to the next sequence to report its A*02:01 In Vitro Score.
Which A*02:01 In Vitro Score is listed for FIIFWVSRG ?
0.20

----------
Target: HLA-A*11:01 (Homo sapiens, UniProt P04439, A114D/D185E/E176A/F33Y/L180Q/S129P/T187R)
Assay: REVEAL Epitope Discovery System in vitro MHC-peptide binding assay
Settings: binding normalized to positive control peptide set at 100%, >50 considered good or high affinity binding
No end group written: not given here.
As shown below, each of these sequences has a reported A*11:01 In Vitro Score value.

>>> reported("IFWVQRGSK")
103.30
>>> reported("IIFWVQRGN")
29.00
>>> reported("VAFIIFWVL")
0.20
>>> reported("AFIIFWVAR")
51.80
>>> reported("FWVHRGRKK")
5.60
>>> reported("WVQRGAKKL")
3.80
>>> reported("FIIFWVQRG")
1.50
>>> reported("WVSRGRKKL")
4.40

Which A*11:01 In Vitro Score is listed for WVLRGRKKL ?
3.20

Which A*11:01 In Vitro Score is listed for WVKRGAKKL ?
4.60

----------
Target: HLA-B*08:01 (Homo sapiens, UniProt P01889, A93T/A95T/D138N/E176V/E187T/K202T/Q94N/R180D/S35A/V36M/Y33D/Y91F)
Experiment: REVEAL Epitope Discovery System in vitro MHC-peptide binding assay
Details: binding normalized to positive control peptide set at 100%, >50 considered good or high affinity binding
No end group written: not given here.
Decision: B*08:01 In Vitro Score compared against 0.1; not below it gives rule met, below it gives rule not met.

Check out these entries, answers already filled in.
>>> class_name("AFIIFWVQR")
"rule not met"
>>> class_name("IFWVARGRK")
"rule not met"
>>> class_name("IFWVLRGRK")
"rule not met"
>>> class_name("FWVQRGSKK")
"rule not met"

Could you please find out whether WVKRGRKKA has B*08:01 In Vitro Score that meets 0.1 or exceeds it?
rule met

Could you please find out whether AFIIFWVKR has B*08:01 In Vitro Score that meets 0.1 or exceeds it?
rule met

Could you please find out whether FWVHRGRKK has B*08:01 In Vitro Score that meets 0.1 or exceeds it?
rule not met

Could you please find out whether WVKRGHKKL has B*08:01 In Vitro Score that meets 0.1 or exceeds it?
rule met

Could you please find out whether IFWVKRGSK has B*08:01 In Vitro Score that meets 0.1 or exceeds it?
rule met

Could you please find out whether FWVLRGRKK has B*08:01 In Vitro Score that meets 0.1 or exceeds it?
rule not met

Could you please find out whether IFWVQRGAK has B*08:01 In Vitro Score that meets 0.1 or exceeds it?
rule met

Could you please find out whether WVQRGAKKL has B*08:01 In Vitro Score that meets 0.1 or exceeds it?
rule met

Could you please find out whether WVKRGRKKS has B*08:01 In Vitro Score that meets 0.1 or exceeds it?
rule met

Could you please find out whether IIFWVSRGR has B*08:01 In Vitro Score that meets 0.1 or exceeds it?
rule not met

----------
Target: HLA-B*08:01 (Homo sapiens, UniProt P01889, A93T/A95T/D138N/E176V/E187T/K202T/Q94N/R180D/S35A/V36M/Y33D/Y91F)
Assay: REVEAL Epitope Discovery System in vitro MHC-peptide binding assay
Settings: binding normalized to positive control peptide set at 100%, >50 considered good or high affinity binding
No end group written: not given here.
Decision: B*08:01 In Vitro Score compared against 0.4; not below it gives TRUE, below it gives FALSE.

Check out these entries, answers already filled in.
>>> class_name("FIIFWVQRG")
"TRUE"
>>> class_name("IIFWVQRGS")
"FALSE"
>>> class_name("IFWVKRGAK")
"TRUE"
>>> class_name("IIFWVHRGR")
"FALSE"
>>> class_name("WVKRGAKKL")
"TRUE"

Could you please find out whether IFWVSRGRK has B*08:01 In Vitro Score that meets 0.4 or exceeds it?
FALSE

Could you please find out whether IIFWVQRGN has B*08:01 In Vitro Score that meets 0.4 or exceeds it?
FALSE

Could you please find out whether IFWVQRGSK has B*08:01 In Vitro Score that meets 0.4 or exceeds it?
FALSE

----------
Molecular target: HLA-A*02:01 (Homo sapiens, UniProt P04439, D140Y/D185E/D98H/E176V/E277Q/G131W/G231S/I119V/I121R/I166T/I218V/L300P/L318F/N151K/N90K/P208A/P217A/Q86G/Q94H/R138H/R169H/T345S)
Assay: REVEAL Epitope Discovery System in vitro MHC-peptide binding assay
Conditions: binding normalized to positive control peptide set at 100%, greater than 50 considered good or high affinity binding
No end group written: not given here.
As shown below, each of these sequences has a reported A*02:01 In Vitro Score value.

Answered examples (3):
>>> reported("IIFWVKRGR")
1.70
>>> reported("IIFWVQRGA")
95.30
>>> reported("WVQRGNKKL")
4.30

Which A*02:01 In Vitro Score is listed for IFWVHRGRK ?
7.10

Which A*02:01 In Vitro Score is listed for FWVSRGRKK ?
1.50

Which A*02:01 In Vitro Score is listed for WVKRGHKKL ?
3.90

Which A*02:01 In Vitro Score is listed for IIFWVQRGR ?
5.80

Which A*02:01 In Vitro Score is listed for IIFWVHRGR ?
4.70

----------
As shown below, each of these sequences has a reported A*02:01 In Vitro Score value.
Biological target: HLA-A*02:01 (Homo sapiens, UniProt P04439, D140Y/D185E/D98H/E176V/E277Q/G131W/G231S/I119V/I121R/I166T/I218V/L300P/L318F/N151K/N90K/P208A/P217A/Q86G/Q94H/R138H/R169H/T345S)
Experiment: REVEAL Epitope Discovery System in vitro MHC-peptide binding assay
Details: binding normalized to positive control peptide set at 100%, greater than 50 considered good or high affinity binding
No end group written: not given here.
// no unit string in output, number only

Answered examples (3):
>>> reported("FWVKRGSKK")
1.90
>>> reported("IFWVKRGLK")
2.40
>>> reported("AFIIFWVHR")
0.30

Which A*02:01 In Vitro Score is listed for IFWVQRGNK ?
16.10

Which A*02:01 In Vitro Score is listed for IIFWVSRGR ?
2.60

Which A*02:01 In Vitro Score is listed for IFWVLRGRK ?
2.90

Which A*02:01 In Vitro Score is listed for WVSRGRKKL ?
2.30

----------
Target: HLA-A*11:01 (Homo sapiens, UniProt P04439, A114D/D185E/E176A/F33Y/L180Q/S129P/T187R)
Assay: REVEAL Epitope Discovery System in vitro MHC-peptide binding assay
Details: binding normalized to positive control peptide set at 100%, >50 considered good or high affinity binding
No end group written: not given here.
With a cut-off of 10, any A*11:01 In Vitro Score strictly below it is called Met; any A*11:01 In Vitro Score meeting it or above is called Not met.

Check out these entries, answers already filled in.
>>> class_name("FWVQRGRKK")
"Met"
>>> class_name("AFIIFWVHR")
"Not met"
>>> class_name("IFWVARGRK")
"Not met"
>>> class_name("FWVKRGSKK")
"Met"
>>> class_name("IFWVQRGNK")
"Not met"

State whether 10 exceeds A*11:01 In Vitro Score recorded for IIFWVKRGR .
Not met

State whether 10 exceeds A*11:01 In Vitro Score recorded for FWVSRGRKK .
Met

State whether 10 exceeds A*11:01 In Vitro Score recorded for FWVKRGAKK .
Not met

State whether 10 exceeds A*11:01 In Vitro Score recorded for AFIIFWVSR .
Not met

State whether 10 exceeds A*11:01 In Vitro Score recorded for WVKRGHKKL .
Met
